Entries and their IC50
Target: EGFR del19/C797S (Homo sapiens, UniProt P00533, C797S/DEL746-750)
Sequence (P00533 with tags, fused parts or gaps DEL746-750/C797S): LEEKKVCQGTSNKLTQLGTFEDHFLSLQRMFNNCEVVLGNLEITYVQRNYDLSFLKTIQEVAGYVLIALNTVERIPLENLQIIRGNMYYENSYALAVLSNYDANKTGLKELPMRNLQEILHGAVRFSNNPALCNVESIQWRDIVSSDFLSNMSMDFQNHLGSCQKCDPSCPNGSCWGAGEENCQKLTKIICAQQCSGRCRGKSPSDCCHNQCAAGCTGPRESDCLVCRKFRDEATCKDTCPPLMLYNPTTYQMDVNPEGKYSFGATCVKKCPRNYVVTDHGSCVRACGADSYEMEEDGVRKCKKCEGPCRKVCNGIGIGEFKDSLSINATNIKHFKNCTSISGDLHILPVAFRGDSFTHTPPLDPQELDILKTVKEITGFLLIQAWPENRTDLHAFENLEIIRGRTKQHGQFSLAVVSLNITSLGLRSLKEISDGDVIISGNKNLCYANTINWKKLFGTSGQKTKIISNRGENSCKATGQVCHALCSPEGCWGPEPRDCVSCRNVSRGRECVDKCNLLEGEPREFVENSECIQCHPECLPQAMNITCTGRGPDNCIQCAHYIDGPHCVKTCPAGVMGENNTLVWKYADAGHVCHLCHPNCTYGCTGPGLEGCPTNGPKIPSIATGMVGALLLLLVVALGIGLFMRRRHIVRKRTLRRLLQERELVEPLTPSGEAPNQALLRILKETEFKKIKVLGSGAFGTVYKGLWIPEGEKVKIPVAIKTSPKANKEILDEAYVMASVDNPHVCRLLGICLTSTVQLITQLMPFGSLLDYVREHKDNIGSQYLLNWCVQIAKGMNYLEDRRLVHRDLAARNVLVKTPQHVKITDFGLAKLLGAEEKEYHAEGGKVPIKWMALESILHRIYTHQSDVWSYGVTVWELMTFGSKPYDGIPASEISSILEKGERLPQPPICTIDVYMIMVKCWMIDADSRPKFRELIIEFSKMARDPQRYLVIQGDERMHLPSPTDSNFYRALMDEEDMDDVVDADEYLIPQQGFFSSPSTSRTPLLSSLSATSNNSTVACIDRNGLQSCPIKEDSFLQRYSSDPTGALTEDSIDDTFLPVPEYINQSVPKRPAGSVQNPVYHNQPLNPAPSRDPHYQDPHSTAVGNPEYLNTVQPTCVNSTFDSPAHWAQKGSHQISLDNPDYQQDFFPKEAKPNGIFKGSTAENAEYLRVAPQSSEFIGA
Test: Biochemical EGFR kinase assay (Lance Ultra TR-FRET), double mutant del19/C797S
Conditions: IC50 del19/C797S (nM) 100 μM ATP, 100 μM ATP
A number alone suffices; assume nM.

The examples below pair each entry with its known result.
COMPOUND STRUCTURE | UNIT STRING | IC50
O=S(=O)(C1CC1)n1cc(-c2nccc(Nc3cc(N[C@H]4CC[C@@H](NCCF)CC4)c(-c4cc5n(n4)CCCC5)cn3)n2)cn1 | nM | 0.5
O=S(=O)(C1CC1)n1cc(-c2nccc(Nc3cc(N[C@H]4CC[C@@H](CN5CCC5)CC4)c(-c4ccn(CC(F)F)n4)cn3)n2)cn1 | nM | 0.3
Cn1nc(-c2cnc(Nc3ccnc(-c4cnn(S(=O)(=O)C5CC5)c4)n3)cc2N[C@H]2CC[C@@H](CO)CC2)cc1C(F)(F)F | nM | 3.2
C[C@]1(O)CC[C@@H](Nc2cc(Nc3ccnc(-c4cnn(S(=O)(=O)C5CC5)c4)n3)ncc2-c2csc(N3CCOCC3)n2)CC1 | nM | 2.3
CN(C)C[C@H]1CC[C@@H](Nc2cc(Nc3ccnc(-c4cnn(S(=O)(=O)C5CC5)c4)n3)ncc2-c2cc(C(C)(C)O)n(C)n2)CC1 | nM | 0.3

Here is another compound to look at.
Ask | Return reported IC50 for target or system EGFR del19/C797S (Homo sapiens, UniProt P00533, C797S/DEL746-750), item CNC(=O)[C@H]1CC[C@@H](Nc2cc(Nc3ccnc(-c4cnn(S(=O)(=O)C5CC5)c4)n3)ncc2-c2ccn(C(F)F)n2)CC1 .
Reply | 0.8

---

Molecular target: EGFR del19/C797S (Homo sapiens, UniProt P00533, C797S/DEL746-750)
Experiment: Biochemical EGFR kinase assay (Lance Ultra TR-FRET), double mutant del19/C797S
Conditions: Km ATP; read-out: IC50 del19/C797S, Km ATP
RECORDED ENDPOINT: pIC50
When answering, recall that pIC50 equals minus log10 of the concentration in mol/L, and write that number alone.

COMPOUND STRUCTURE | pIC50
Cn1nc(-c2nnc(Nc3ccnc(-c4cnn(S(=O)(=O)C5CC5)c4)n3)cc2N[C@H]2CC[C@@](C)(O)CC2)cc1C(F)(F)F | 6.18
C[C@]1(O)CC[C@@H](Nc2cc(Nc3ccnc(N4CCC[C@@H](O)C4)n3)ncc2-c2ccn(C(F)F)n2)CC1 | 6.18

Here is another compound to look at.
Ask | Provide one value: measured pIC50 of C[C@]1(O)CC[C@@H](Nc2cc(Nc3ccnc(-c4cnn(CC(F)F)c4)n3)ncc2-c2ccn(C(F)(F)F)n2)CC1
Reply | 7.67

---

Target: EGFR L858R/T790M/C797S (Homo sapiens, UniProt P00533, C797S/L858R/T790M)
Sequence (P00533 25-1210 T790M/C797S/L858R): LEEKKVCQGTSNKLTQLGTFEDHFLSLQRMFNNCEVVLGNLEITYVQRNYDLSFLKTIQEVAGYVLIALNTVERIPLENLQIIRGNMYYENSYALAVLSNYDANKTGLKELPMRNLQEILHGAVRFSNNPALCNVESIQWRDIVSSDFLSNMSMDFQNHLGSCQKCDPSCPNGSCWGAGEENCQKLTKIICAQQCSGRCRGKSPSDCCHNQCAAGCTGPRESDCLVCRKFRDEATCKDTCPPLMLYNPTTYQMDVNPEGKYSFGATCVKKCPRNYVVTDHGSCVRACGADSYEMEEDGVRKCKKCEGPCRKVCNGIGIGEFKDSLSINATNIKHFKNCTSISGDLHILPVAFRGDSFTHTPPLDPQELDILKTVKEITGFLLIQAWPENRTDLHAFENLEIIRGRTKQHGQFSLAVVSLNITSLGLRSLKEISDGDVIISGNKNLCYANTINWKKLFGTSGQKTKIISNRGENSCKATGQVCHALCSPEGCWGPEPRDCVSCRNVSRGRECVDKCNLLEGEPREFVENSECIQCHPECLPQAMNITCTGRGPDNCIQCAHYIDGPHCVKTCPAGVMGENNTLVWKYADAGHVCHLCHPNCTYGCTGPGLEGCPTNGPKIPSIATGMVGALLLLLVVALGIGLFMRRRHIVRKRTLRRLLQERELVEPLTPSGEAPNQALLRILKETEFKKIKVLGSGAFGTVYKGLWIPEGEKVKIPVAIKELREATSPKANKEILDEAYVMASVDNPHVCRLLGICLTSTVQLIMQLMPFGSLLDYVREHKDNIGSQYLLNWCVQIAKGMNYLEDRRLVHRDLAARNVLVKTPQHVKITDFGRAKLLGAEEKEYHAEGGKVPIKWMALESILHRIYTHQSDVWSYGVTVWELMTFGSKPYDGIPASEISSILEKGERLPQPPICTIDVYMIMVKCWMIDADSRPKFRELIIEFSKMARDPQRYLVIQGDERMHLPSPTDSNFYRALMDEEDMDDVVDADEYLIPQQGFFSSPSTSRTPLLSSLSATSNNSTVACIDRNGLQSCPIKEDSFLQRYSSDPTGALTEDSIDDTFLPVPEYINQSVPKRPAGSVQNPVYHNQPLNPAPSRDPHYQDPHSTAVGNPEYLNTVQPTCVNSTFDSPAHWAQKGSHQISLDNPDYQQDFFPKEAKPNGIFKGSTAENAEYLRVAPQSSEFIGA
Experiment: Biochemical EGFR kinase assay (Lance Ultra TR-FRET), triple mutant L858R/T790M/C797S
Conditions: Km ATP; read-out: IC50 L858R/T790M/C797S (nM) Km ATP
Protocol: Biochemical EGFR kinase assays were conducted using Lance Ultra time-resolved fluorescence resonance energy transfer (TR-FRET) technology from Perkin-Elmer. […] Each kinase reactions were incubated at room temperature for 1 hour and then stopped by the addition of 4 μL of stop solution (10 mM EDTA). […] After 60 minutes incubation at room temperature the LANCE signal was measured on an EnVision Multilabel Reader (Perkin-Elmer). […]
RECORDED ENDPOINT: IC50 (nM)
A number alone suffices; assume nM.

COMPOUND | IC50 [nM]
CS(=O)(=O)c1ccn(-c2cnc(Nc3ccnc(-c4cnn(S(=O)(=O)C5CC5)c4)n3)cc2N[C@H]2CC[C@@](C)(O)CC2)n1 | 0.6
O=S(=O)(C1CC1)n1cc(-c2nccc(Nc3cc(NC[C@H]4C[C@@H](O)C4)c(-c4ccn(C(F)F)n4)cn3)n2)cn1 | 0.2
CC(C)Nc1cc(Nc2ccnc(-c3cnn(S(=O)(=O)C4CC4)c3)n2)ncc1-c1ccn(CCC(F)(F)F)n1 | 1.8

Ask | Provide one value: measured IC50 of CCC(C)Nc1cc(Nc2ccnc(-c3cnn(S(=O)(=O)C4CC4)c3)n2)ncc1-c1ccn(CC(F)F)n1 (stereo not shown)
Reply | 0.9

Ask | Provide one value: measured IC50 of Cc1nn(CC(F)F)c(C)c1-c1nccc(Nc2cc(N[C@H]3CC[C@@](C)(O)CC3)c(-c3ccn(C(F)F)n3)cn2)n1
Reply | 2.3

Ask | Provide one value: measured IC50 of Cn1nc(-c2cnc(Nc3ccnc(-c4cnn(S(=O)(=O)C5CC5)c4)n3)cc2N[C@H]2CC[C@@H](CCO)CC2)cc1C(F)(F)F
Reply | 2.1

Ask | Provide one value: measured IC50 of O=S(=O)(C1CC1)n1cc(-c2nccc(Nc3cc(N[C@H]4CC[C@@H](F)CC4)c(-c4ccn(C(F)(F)F)n4)cn3)n2)cn1
Reply | 4.8

Ask | Provide one value: measured IC50 of COCn1ccc(-c2cnc(Nc3ccnc(-c4cnn(S(=O)(=O)C5CC5)c4)n3)cc2N[C@H]2CC[C@@](C)(O)CC2)n1
Reply | 0.2

Ask | Provide one value: measured IC50 of C[C@]1(O)CC[C@@H](Nc2cc(Nc3ccnc(-c4cnn(CC(F)(F)C(F)F)c4)n3)ncc2-c2ccn(C(F)F)n2)CC1
Reply | 0.6
